The origin of these recorded values is the supplement of paper PMC12592484.

Reported drug sensitivity score values are given for each entry in this list.
System: CAF#4 (primary prostate cancer-associated fibroblasts of iCAF-like type)
Assay: drug sensitivity score (DSS2, normalised partial AUC of dose-response, 72 h CellTiter-Glo viability) (DSS (dimensionless)); higher = more sensitive (stronger growth inhibition / cytotoxicity); extreme values may be limits of the assay

COMPOUND | drug sensitivity score
CN(C)Cc1ccc(S(=O)(=O)n2ccc(/C=C/C(=O)NO)c2)cc1 [Resminostat] (tested concentration range 1-10000 nM) | 6
Oc1nc(-c2ccc(C(F)(F)F)cc2)nc2c1CSCC2 [XAV-939] (tested concentration range 1-10000 nM) | 2.6
O=C(O)C(=O)O.[NH-][C@@H]1CCCC[C@H]1[NH-].[Pt+2] [Oxaliplatin] (tested concentration range 10-100000 nM) | 9.1
CC[C@H](CO)Nc1nc(NCc2ccccc2)c2ncn(C(C)C)c2n1 [Seliciclib] (tested concentration range 1-10000 nM) | 1.4
COCCNCc1ccc(-c2cc3nccc(Oc4ccc(NC(=O)C5(C(=O)Nc6ccc(F)cc6)CC5)cc4F)c3s2)nc1 [Sitravatinib] (tested concentration range 0.2-2500 nM) | 6.6
Cn1cnc2c(F)c(Nc3ccc(Br)cc3F)c(C(=O)NOCCO)cc21 [Binimetinib] (tested concentration range 0.1-1000 nM) | 0

----------
Test system: CAF#5 (primary prostate cancer-associated fibroblasts of myCAF-like type)
Experiment: drug sensitivity score (DSS2, normalised partial AUC of dose-response, 72 h CellTiter-Glo viability) (DSS (dimensionless)); higher = more sensitive (stronger growth inhibition / cytotoxicity); extreme values may be limits of the assay
RESULT_TYPE: drug sensitivity score

COMPOUND | MEASURED_TARGET | ASSAY_RESULT
Cc1ccc(C(=O)Nc2ccc(Oc3cc4cnn(C)c4cc3-c3cn[nH]c3)c(F)c2)c(=O)n1-c1ccc(F)cc1 [Merestinib] (tested concentration range 0.1-1000 nM) | CAF#5 | 3.8
COc1cc(C(=O)O)ccc1NC(=O)[C@@H]1N[C@@H](CC(C)(C)C)[C@](C#N)(c2ccc(Cl)cc2F)[C@H]1c1cccc(Cl)c1F [Idasanutlin] (tested concentration range 1-10000 nM) | CAF#5 | 12.5
CC(C)(C)c1nc(-c2cccc(NS(=O)(=O)c3c(F)cccc3F)c2F)c(-c2ccnc(N)n2)s1 [Dabrafenib] (tested concentration range 0.2-2500 nM) | CAF#5 | 3.5
CC[C@H](C)C(=O)O[C@H]1C[C@@H](C)C=C2C=C[C@H](C)[C@H](CC[C@@H]3C[C@@H](O)CC(=O)O3)[C@H]21 [Lovastatin] (tested concentration range 1-10000 nM) | CAF#5 | 3.7
Cc1sc2c(c1C)C(c1ccc(Cl)cc1)=N[C@@H](CC(=O)Nc1ccc(OCCOCCOCCOCCNc3cccc4c3C(=O)N(C3CCC(=O)NC3=O)C4=O)cc1)c1nnc(C)n1-2 (stereo not given in full) [ARV-825] (tested concentration range 0-300 nM) | CAF#5 | 6.2

----------
Test system: CAF#4
Test: drug sensitivity score (DSS2, normalised partial AUC of dose-response, 72 h CellTiter-Glo viability) (DSS (dimensionless)); higher = more sensitive (stronger growth inhibition / cytotoxicity); extreme values may be limits of the assay
# reported drug sensitivity score; entries follow
RESULT_TYPE: drug sensitivity score

MOLECULE | ASSAY_RESULT
CC(C)C[C@H](NC(=O)[C@@H](COC(C)(C)C)NC(=O)[C@H](Cc1ccc(O)cc1)NC(=O)[C@H](CO)NC(=O)[C@H](Cc1c[nH]c2ccccc12)NC(=O)[C@H](Cc1cnc[nH]1)NC(=O)[C@@H]1CCC(=O)N1)C(=O)N[C@@H](CCCNC(=N)N)C(=O)N1CCC[C@H]1C(=O)NNC(N)=O [Goserelin] (tested concentration range 1-10000 nM) | 0
Cc1ccc(=O)n(-c2ccccc2)c1 [Pirfenidone] (tested concentration range 1-10000 nM) | 0
Cc1ccc(C(=O)Nc2ccc(Oc3cc4cnn(C)c4cc3-c3cn[nH]c3)c(F)c2)c(=O)n1-c1ccc(F)cc1 [Merestinib] (tested concentration range 0.1-1000 nM) | 4.4
FC(F)(F)c1ccc(/C=C/c2nc(COc3ccc(CCCCn4ccnn4)cc3)co2)cc1 [Mubritinib] (tested concentration range 0.1-1000 nM) | 0
C[C@@H]1C[C@H]2[C@@H]3CCC4=CC(=O)C=C[C@]4(C)[C@@]3(F)[C@@H](O)C[C@]2(C)[C@@]1(O)C(=O)CO [Dexamethasone] (tested concentration range 1-10000 nM) | 0

----------
Test system: CAF#2 (primary prostate cancer-associated fibroblasts of iCAF-like type)
Assay: drug sensitivity score (DSS2, normalised partial AUC of dose-response, 72 h CellTiter-Glo viability) (DSS (dimensionless)); higher = more sensitive (stronger growth inhibition / cytotoxicity); extreme values may be limits of the assay
Decision: drug sensitivity score compared against 2; not below it gives Criterion met, below it gives Criterion not met.

COMPOUND | MEASURED_TARGET | ASSIGNED_LABEL
Nc1ncn([C@H]2C[C@H](O)[C@@H](CO)O2)c(=O)n1 [Decitabine] (tested concentration range 1-10000 nM) | CAF#2 | Criterion not met
Cc1sc2c(c1C)C(c1ccc(Cl)cc1)=N[C@@H](CC(=O)Nc1ccc(OCCOCCOCCOCCNc3cccc4c3C(=O)N(C3CCC(=O)NC3=O)C4=O)cc1)c1nnc(C)n1-2 (stereo partly specified) [ARV-825] (tested concentration range 0-300 nM) | CAF#2 | Criterion met
O=c1[nH]c(=O)n([C@H]2C[C@H](O)[C@@H](CO)O2)cc1C(F)(F)F [Trifluridine] (tested concentration range 1-10000 nM) | CAF#2 | Criterion not met
O=C(Nc1cccnc1)N1CCC(Cc2cccc(Oc3ccc(C(F)(F)F)cn3)c2)CC1 [PF-3845] (tested concentration range 1-10000 nM) | CAF#2 | Criterion not met
O=C(CCCCCCC(=O)Nc1ccccc1)NO [Vorinostat] (tested concentration range 1-10000 nM) | CAF#2 | Criterion met
O=C(O)c1ccc(O)c2ncccc12 [IOX-1] (tested concentration range 10-100000 nM) | CAF#2 | Criterion not met
COc1ccc(C[C@H](NC(=O)[C@H](C)NC(=O)CN2CCOCC2)C(=O)N[C@@H](Cc2ccccc2)C(=O)C2(C)CO2)cc1 (stereo in doubt) [ONX-0914] (tested concentration range 1-10000 nM) | CAF#2 | Criterion met
CC(O)c1cc(C(=O)N[C@@H](C)Cn2ccc(-c3ccc(C#N)c(Cl)c3)n2)n[nH]1 (stereo partly specified) [Darolutamide] (tested concentration range 0.2-2500 nM) | CAF#2 | Criterion met
COc1cc2nccc(Oc3ccc(NC(=O)Nc4cc(C)on4)c(Cl)c3)c2cc1OC [Tivozanib] (tested concentration range 1-10000 nM) | CAF#2 | Criterion met
C[C@H](Nc1ncnc2nc[nH]c12)c1cc2cccc(Cl)c2c(=O)n1-c1ccccc1 [Duvelisib] (tested concentration range 0-500 nM) | CAF#2 | Criterion not met
CC(C)[C@@H](CS(=O)(=O)C(C)C)N1C(=O)[C@@](C)(CC(=O)O)C[C@H](c2cccc(Cl)c2)[C@H]1c1ccc(Cl)cc1 [KRT-232] (tested concentration range 1-10000 nM) | CAF#2 | Criterion met

----------
Tested on: CAF#3 (primary prostate cancer-associated fibroblasts of myCAF-like type)
Assay: drug sensitivity score (DSS2, normalised partial AUC of dose-response, 72 h CellTiter-Glo viability) (DSS (dimensionless)); higher = more sensitive (stronger growth inhibition / cytotoxicity); extreme values may be limits of the assay
Note to self: values exactly at 2 are YES. So drug sensitivity score at or above 2 is YES, below is NO.

COMPOUND | MEASURED_TARGET | ASSIGNED_LABEL
CNC(=O)c1cc(Oc2ccc(NC(=O)Nc3ccc(Cl)c(C(F)(F)F)c3)cc2)ccn1 [Sorafenib] (tested concentration range 0.1-1000 nM) | CAF#3 | YES
CNCc1ccc(-c2[nH]c3cc(F)cc4c3c2CCNC4=O)cc1 [Rucaparib] (tested concentration range 1-10000 nM) | CAF#3 | NO
CO[C@H]1C[C@@H]2CC[C@@H](C)[C@@](O)(O2)C(=O)C(=O)N2CCCC[C@H]2C(=O)O[C@H]([C@H](C)C[C@@H]2CC[C@@H](OC(=O)C(C)(CO)CO)[C@H](OC)C2)CC(=O)[C@H](C)/C=C(\C)[C@@H](O)[C@@H](OC)C(=O)[C@H](C)C[C@H](C)/C=C/C=C/C=C/1C [Temsirolimus] (tested concentration range 0-100 nM) | CAF#3 | YES
NC1(C(=O)N[C@@H](CCO)c2ccc(Cl)cc2)CCN(c2nc[nH]c3nccc2-3)CC1 [Capivasertib] (tested concentration range 1-10000 nM) | CAF#3 | NO
COc1cc(Nc2c(C#N)cnc3cc(OCCCN4CCN(C)CC4)c(OC)cc23)c(Cl)cc1Cl [Bosutinib] (tested concentration range 1-10000 nM) | CAF#3 | YES
CC(C)C[C@H](NC(=O)[C@@H](COC(C)(C)C)NC(=O)[C@H](Cc1ccc(O)cc1)NC(=O)[C@H](CO)NC(=O)[C@H](Cc1c[nH]c2ccccc12)NC(=O)[C@H](Cc1cnc[nH]1)NC(=O)[C@@H]1CCC(=O)N1)C(=O)N[C@@H](CCCNC(=N)N)C(=O)N1CCC[C@H]1C(=O)NNC(N)=O [Goserelin] (tested concentration range 1-10000 nM) | CAF#3 | NO
CC(C)NC[C@@H](C(=O)N1CCN(c2ncnc3c2[C@H](C)C[C@H]3O)CC1)c1ccc(Cl)cc1 [Ipatasertib] (tested concentration range 1-10000 nM) | CAF#3 | NO
CC(C)Nc1cc(-c2c[nH]c(C(=O)N[C@H](CO)c3cccc(Cl)c3)c2)c(Cl)cn1 [Ulixertinib] (tested concentration range 1-10000 nM) | CAF#3 | NO
Oc1ccc2c(c1)CC[C@H](c1ccccc1)[C@@H]2c1ccc(OCCN2CCCC2)cc1 [Lasofoxifene] (tested concentration range 0.1-1000 nM) | CAF#3 | NO
CC(C)Oc1ccc(-c2nn([C@@H](C)c3oc4ccc(F)cc4c(=O)c3-c3cccc(F)c3)c3ncnc(N)c23)cc1F [Umbralisib] (tested concentration range 0.2-2500 nM) | CAF#3 | YES
